From: patent US7470680B2

assayed-target: CGRP receptor (Homo sapiens, UniProt O60894+Q16602)
Sequence (Q16602 23-461): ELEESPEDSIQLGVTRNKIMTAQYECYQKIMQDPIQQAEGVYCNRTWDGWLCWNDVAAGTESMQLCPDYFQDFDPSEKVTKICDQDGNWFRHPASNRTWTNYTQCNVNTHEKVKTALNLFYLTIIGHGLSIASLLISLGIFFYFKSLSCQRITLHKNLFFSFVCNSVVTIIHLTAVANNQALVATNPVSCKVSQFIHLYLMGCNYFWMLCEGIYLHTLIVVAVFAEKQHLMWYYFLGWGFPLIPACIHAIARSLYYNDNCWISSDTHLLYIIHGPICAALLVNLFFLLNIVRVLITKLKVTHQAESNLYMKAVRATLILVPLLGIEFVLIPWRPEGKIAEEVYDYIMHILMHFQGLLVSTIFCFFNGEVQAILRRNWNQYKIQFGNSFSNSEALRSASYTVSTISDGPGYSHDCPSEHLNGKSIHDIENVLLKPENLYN
Sequence (O60894 27-148): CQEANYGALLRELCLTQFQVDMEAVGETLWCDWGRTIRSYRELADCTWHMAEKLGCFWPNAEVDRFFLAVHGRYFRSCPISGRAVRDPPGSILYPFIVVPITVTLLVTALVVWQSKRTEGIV
protocol-text: CGRP radioligand binding assay ([125I]-CGRP displacement, SK-N-MC homogenate)
Parameters: endogenous in cells; host or cells: SK-N-MC cells (homogenate/membrane pellet)
applied-conditions: Table 1; displacement of [125I]-CGRP, SK-N-MC membranes
test-readout: IC50

// worked examples, IC50 included
> print(dat)
                                   compound  test.readout   result.value
1  CC(C)(C)CN1Cc2c(cc(Cl)c3[nH]ncc23)C[C@@H](CC(=O)N2CCC(c3cc4sc(Br)cc4[nH]c3=O)CC2)C1=O (mixture of isomers)          IC50  0.01 to 10 nM
2  O=C(C[C@@H]1Cc2cc(Cl)c3[nH]nc(Cl)c3c2CN(CCN2CCCCC2)C1=O)N1CCC(N2CCc3ccccc3NC2=O)CC1          IC50  0.01 to 10 nM

input: Fill in IC50 for record `O=C(C[C@@H]1Cc2cc(Cl)c3[nH]ncc3c2CN(CC(F)(F)F)C1=O)N1CCC(N2CCc3ncccc3NC2=O)CC1`
output: 0.01 to 10 nM

input: Fill in IC50 for record `O=C(C[C@@H]1Cc2cc(Cl)c3[nH]nc(Cl)c3c2CN(CC(F)(F)F)C1=O)N1CCC(n2c(=O)[nH]c3ncccc32)CC1`
output: 0.01 to 10 nM

input: Fill in IC50 for record `COCCn1ncc2c3c(cc(Cl)c21)C[C@@H](CC(=O)N1CCC(N2CCc4ccccc4NC2=O)CC1)C(=O)N(CC(F)(F)F)C3`
output: 0.01 to 10 nM

input: Fill in IC50 for record CC(C)(C)CN1Cc2c(cc(Cl)c3[nH]ncc23)C[C@@H](CC(=O)N2CCC(c3cc4scc(Cl)c4[nH]c3=O)CC2)C1=O (mixture of isomers)
output: 0.01 to 10 nM

input: Fill in IC50 for record `CC(C)(C)CN1Cc2c(cc(Cl)c3[nH]ccc23)C[C@@H](CC(=O)N2CCC(O)(c3cc(Cl)nc4[nH]ccc34)CC2)C1=O`
output: 100 to 1000 nM

input: Fill in IC50 for record `CC(C)(C)CN1Cc2c(cc(Cl)c3[nH]ncc23)C[C@@H](CC(=O)N2CCC(c3cc4sc(Cl)cc4[nH]c3=O)CC2)C1=O`
output: 0.01 to 10 nM

input: Fill in IC50 for record `CCCn1ncc2c3c(cc(Cl)c21)C[C@@H](CC(=O)N1CCC(N2CCc4ccccc4NC2=O)CC1)C(=O)N(CC(F)(F)F)C3`
output: 10 to 100 nM

###

# pIC50 per record follows
assayed-target: CGRP receptor (Homo sapiens, UniProt O60894+Q16602)
protocol-text: CGRP radioligand binding assay ([125I]-CGRP displacement, SK-N-MC homogenate)
Parameters: endogenous in cells; host or cells: SK-N-MC cells (homogenate/membrane pellet)
applied-conditions: Table 1; displacement of [125I]-CGRP, SK-N-MC membranes
pIC50: −log10 of the molar value.

// worked examples, pIC50 included
> print(dat)
                                 smiles.str   result.value
1  O=C(C[C@@H]1Cc2cc(Br)c3[nH]nc(Cl)c3c2CN(CC(F)(F)F)C1=O)N1CCC(N2CCc3ccccc3NC2=O)CC1  8.00 to 11.00
2  O=C(C[C@@H]1Cc2cc(Cl)c3[nH]ncc3c2CN(CC(F)(F)F)C1=O)N1CCC(n2c(=O)[nH]c3ncccc32)CC1  8.00 to 11.00
3  O=C1Nc2ccccc2C2(CCN(C(=O)C[C@@H]3Cc4cc(Cl)c5[nH]ncc5c4CN(CC(F)(F)F)C3=O)CC2)N1  8.00 to 11.00

input: Fill in pIC50 for record `N#Cc1cc(Cl)ccc1C1=CCN(C(=O)C[C@@H]2Cc3cc(Cl)c4[nH]ncc4c3CN(CC(F)(F)F)C2=O)CC1`
output: 7.00 to 8.00

input: Fill in pIC50 for record `Cn1ncc2c3c(cc(Cl)c21)C[C@@H](CC(=O)N1CCC(N2CCc4ccccc4NC2=O)CC1)C(=O)N(CC(F)(F)F)C3`
output: 8.00 to 11.00

input: Fill in pIC50 for record `O=C(C[C@@H]1Cc2cc(Cl)c3[nH]ncc3c2CN(CC(F)(F)F)C1=O)N1CCC(n2ccn(-c3ccccc3)c2=O)CC1`
output: 6.00 to 7.00

input: Fill in pIC50 for record `O=C(O[C@@H]1Cc2cc(Cl)c3[nH]ncc3c2CN(CC(F)(F)F)C1=O)N1CCC(n2c(=O)[nH]c3ncccc32)CC1`
output: 8.00 to 11.00
